# Tested On: T1, Ml2 (Mesorhizobium loti, UniProt A0A1A5JHX8 1-141)
# T1 sequence: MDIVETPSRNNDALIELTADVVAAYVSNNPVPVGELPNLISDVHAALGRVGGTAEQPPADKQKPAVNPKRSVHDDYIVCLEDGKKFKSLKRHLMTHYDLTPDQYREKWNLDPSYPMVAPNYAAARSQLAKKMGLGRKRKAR
# Experiment Notes: EMSA
# Condition Summary: protein: recombinant; chain copies: 10
Reported Metric: binding result

>>> reported_value("Core1 (dsDNA) DNA 1: GGCGCCGAAATAGCGGAGCG DNA 2: CGCTCCGCTATTTCGGCGCC")
"binds"
>>> reported_value("Seq3.2 (dsDNA) DNA 1: ATTGACTAAAGCCGAAGCTA DNA 2: TAGCTTCGGCTTTAGTCAAT")
"no binding"
>>> reported_value("Seq3.1 (dsDNA) DNA 1: ATTGACGCCCTAATAAGCTA DNA 2: TAGCTTATTAGGGCGTCAAT")
"no binding"
